So I've got a bunch of compounds here, and I need their pKi values.
Molecular target: Neuronal acetylcholine receptor subunit alpha-7 (Rattus norvegicus)
Sequence (Q05941 whole entry): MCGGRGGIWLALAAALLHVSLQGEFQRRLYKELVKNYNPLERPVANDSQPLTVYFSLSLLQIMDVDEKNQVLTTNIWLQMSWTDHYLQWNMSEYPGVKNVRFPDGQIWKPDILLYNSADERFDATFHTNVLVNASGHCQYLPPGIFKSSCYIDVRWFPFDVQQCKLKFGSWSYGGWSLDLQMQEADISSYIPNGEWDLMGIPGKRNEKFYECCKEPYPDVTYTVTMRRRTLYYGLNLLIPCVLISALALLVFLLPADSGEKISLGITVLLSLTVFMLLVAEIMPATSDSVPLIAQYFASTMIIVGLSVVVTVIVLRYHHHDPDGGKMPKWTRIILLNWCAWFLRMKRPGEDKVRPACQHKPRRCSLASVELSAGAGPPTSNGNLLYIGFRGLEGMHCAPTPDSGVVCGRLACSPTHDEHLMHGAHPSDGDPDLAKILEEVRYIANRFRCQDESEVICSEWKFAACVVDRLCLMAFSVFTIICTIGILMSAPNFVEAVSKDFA
Assay: Displacement of [3H]EB from rat nAChR alpha7 expressed in HEK293 cell membranes by liquid scintillation counting
Reminder that pKi means the negative base-10 logarithm of the concentration expressed in mol/L.

Ask: If you can, please state the reported pKi value of "c1cncc(-c2ccc(-c3nnnn3CCCCN3CCOCC3)cc2)c1" .
Reply: 3.78

Ask: Recorded pKi for "c1cncc(-c2ccc(-n3nnnc3CCCCN3CCOCC3)cc2)c1" , please?
Reply: 3.67

Ask: Fill in: pKi of "O=C(CCCCN1CCOCC1)Nc1ccc(-c2cccnc2)cc1" is ___
Reply: 6.17

Ask: Record request: pKi value, item "c1ccc(-c2ccc(-c3nnnn3CCCCN3CCOCC3)cc2)cc1"
Reply: 3.81
